Test Description: Human HepG2 cell viability assay in 384 well format
Format: toxicity, cell-based
Set-up: dose 125 nL, time 70.5 hour; concentration not given beside the values
Assay Conditions: HepG2 cells, read-out: Inhibition
Parameter Measured: cytotoxicity at 70.5 h (%)
Answers are plain numbers, in %.

As a guide, the following entries are already answered.
>>> endpoint_result("O=C1C[C@H]2CC[C@@H](CN1)N2C1CCSCC1")
0.716
>>> endpoint_result("Cc1cc(NC(=O)Cn2cc(C#N)c(=O)c3cc(Br)ccc32)no1")
0.537
>>> endpoint_result("CC1CN(C(=O)c2sccc2Br)CCO1 (stereo unspecified)")
-10.9

Batch request: cytotoxicity at 70.5 h per item, same order as input.
1. CC(C)(CO)CCCNC(=O)NC1(c2cccc(F)c2)CC1
2. O=C(Nc1nc2c(s1)CN(S(=O)(=O)C1CC1)CC2)Nc1ccccc1F

Return:
-8.07
23.7

Okay, here is my list. What is cytotoxicity at 70.5 h for each of these?
1. COCCN(Cc1ccc(F)cc1Cl)C(=O)c1cc(C)n[nH]1
2. Cc1ccc2c(C(=O)N(C)C)cc(-c3cnn(CCO)c3)nc2c1C
3. Fc1cc(CNCCn2cccn2)ccc1-n1cncn1
4. c1ccc(CN2CCc3c(CNc4nccs4)n[nH]c3C2)nc1
5. CC(NC(=O)CN1CCN(c2cccc(Cl)c2)CC1)c1ccco1 (stereo unspecified)
6. CC1(C)CC(=O)c2cnc3nc(N4CCCC4)[nH]c(=O)c3c2C1

Return:
-0.839
-3.4
1.79
-16.9
-5.94
-10.4

* * *

Please provide measured cytotoxicity at 70.5 h for the entries that follow.
Test Description: Human HepG2 cell viability assay in 384 well format
Type: toxicity, cell-based
Parameters: dose 125 nL, time 70.5 hour; concentration not given beside the values
Assay Conditions: HepG2 cells, read-out: Inhibition
One number for each entry, in %.

Consider the reported cytotoxicity at 70.5 h for these molecules:
>>> endpoint_result("Cc1cc(NC(=O)Cn2cnc(-c3cccs3)cc2=O)sn1")
11.1
>>> endpoint_result("CC(C)N(C)Cc1cncc2c1CCN(CC1CC1)C2")
15.2
>>> endpoint_result("OC(COCc1ccccc1)CN1CCC(c2ccn[nH]2)CC1 (centres undefined)")
19.6

State recorded cytotoxicity at 70.5 h for all listed molecules.
1. O=C(NCC1CC1)C1CSCN1S(=O)(=O)c1cccc(F)c1 (centres undefined)
2. N#Cc1cnc(NC2CCN(C(=O)C3CCCCC3)CC2)c(Cl)c1
3. CN(C)c1ncc(I)c(C2CCCN2C)n1 (centres undefined)
4. O=C(Cc1csc(-c2ccccc2)n1)N[C@@H](C(=O)O)c1ccccc1
5. Cc1n[nH]c(C)c1CCNC(=O)Nc1ccc(S(C)(=O)=O)cc1
6. Cc1nc(N2CCOCC2)nc2c1CCN(C(=O)C1CC1)CC2
7. CN1CCN([C@@H]2CCN(Cc3cccc(-n4cccn4)c3)C[C@H]2O)CC1
8. CCN(CCn1cccn1)Cc1nc(-c2cccc(C)c2)oc1C

Return:
1: -0.541; 2: -0.508; 3: 1.48; 4: -9.17; 5: -20; 6: -13.2; 7: 2.97; 8: -5.06

Answer for every listed entry: what is its cytotoxicity at 70.5 h? The entries follow.
1. CC(=O)N1CCN(C(=O)c2cc(-n3cnnn3)ccc2Cl)CC1
2. CCOc1ccccc1Nc1nc2c(C)nn(C)c2c(=O)n1C
3. Cc1cccc(CN2CCc3nnc(CN4CCCCC4)n3CC2)n1
4. COCCCn1ccc(NC(=O)NCCCn2ccnc2)n1
5. Cc1cccc(NC(=O)CNC(=O)Cn2ncc(Cl)c(Cl)c2=O)c1C
6. O=S(=O)(NCc1ccc(S(=O)(=O)N2CCCC2)s1)c1cc(Cl)ccc1Cl
7. CSCC(=O)NS(=O)(=O)c1ccc(C#N)c(C(F)(F)F)c1

Return:
1: 24.6; 2: 8.71; 3: -5.9; 4: -18.9; 5: 4.71; 6: -14.9; 7: -8.4

For each of the items listed, what is its cytotoxicity at 70.5 h?
1. CCN(CC(=O)NC(C)C)C(=O)c1csc(Cc2ccccc2)n1
2. Cc1ccc(CNC[C@H]2Cn3cc(-c4ccccc4)nc3CO2)cc1
3. CS(=O)(=O)N1C[C@@H](NC(=O)c2ccno2)[C@@H]2OCCC[C@@H]21
4. Cc1ccc(CNC(=O)C2CCN(C(=O)C(C)C)CC2)n1C
5. CC(C)CCc1n[nH]c(C(=O)O)c1I
6. CCC(CN1CCCCC1)NC(=O)C1(c2cccc(F)c2)CC1 (centres undefined)

Return:
1: -9.03; 2: -4.13; 3: -12.2; 4: -9.28; 5: -8.29; 6: -8.99
